experimental-system: PIM3 (human) (UniProt Q86V86)
experiment-summary: radiometric filter-binding kinase assay
conditions-used: compound 100.0 µM; ATP 20 µM
measure: inhibition
Reply with the number and its unit after it.

The compound identified as O=c1c(NC(=S)NCc2ccccc2)cnc2[nH]ccn12 registered its inhibition at 0%

According to the records, this compound COc1ccc(-c2cc3c(=O)[nH]cnc3s2)cc1OC displays inhibition of 61%

The recorded inhibition for entry CC(=O)Nc1nc2cnc(-c3c(C)cccc3C)cn2n1 equals 1%

What the record says about CC(=O)Nc1nc2cnc(-c3ccccc3)cn2n1 : inhibition is 30%

// CC1CN(c2nc3ccccn3c(=O)c2N)CC(C)O1 (stereo unspecified) : inhibition value = 1%

For O=C(c1cccc(-c2cc3c(=O)[nH]cnc3s2)c1)N1CCOCC1 the compound record lists inhibition as 51%
